- Tested on: HEK-293T
- test-summary: Multiplex assay against HEK293T
- Assay type: toxicity, cell-based
- measurement-setup: human, 48 h, 1 µM, compound concentration 1 uM, replicate 1
metric: Population Healthy Nuclei (%)
The reply should be a number in %, with the unit left off.

O=C(NCCNCC(O)COc1ccc(O)cc1)N1CCOCC1.O=C(NCCNCC(O)COc1ccc(O)cc1)N1CCOCC1.O=C(O)/C=C/C(=O)O (stereo not drawn) [XAMOTEROL FUMARATE] : 77
Cc1cc(-c2ccc3c(c2)CC[C@H]3N2CC3(CCN(C(=O)Cc4cn5cc(C)sc5n4)CC3)C2)ncn1 [PF-5190457] : 79
Cc1cc(O)c(-c2ccc([C@@H](C)CN(C)C)cc2)c2c1[nH]c(=O)c1sccc12 : 65
O=C(O)CCC/C=C\CC1C(O)CC(O)C1/C=C/C(O)COc1cccc(Cl)c1 (stereo not drawn) [CLOPROSTENOL] : 77
O=c1nc2[nH]c3ccccc3nc-2c(=O)[nH]1 [ALLOXAZINE] : 77

Look at this molecule and give its reported Population Healthy Nuclei (%). O=C(Nc1cc(-c2ccccc2)nn1-c1ccccc1F)c1ccc([N+](=O)[O-])cc1
79

Look at this molecule and give its reported Population Healthy Nuclei (%). Cc1cc(NC(=O)NCCN2CCC(O)(Cc3ccccc3)CC2)c2ccccc2n1 [PALOSURAN]
79

Look at this molecule and give its reported Population Healthy Nuclei (%). CC(C)(O)C(=O)N1CCN(c2ccc(C(F)(F)F)c(C3=C(c4c[nH]c5ccccc45)C(=O)NC3=O)c2)CC1
79

---

- Tested on: Fibroblast
- test-summary: Multiplex assay against human fibroblast
- Type: toxicity, cell-based
- measurement-setup: 24 h, 10 µM, compound concentration 10 uM, replicate 1
Each item that follows carries a reported Population Healthy Nuclei (%).

Before answering, review these 5 worked examples.
COc1c(Nc2ccc(S(C)(=O)=O)nc2C)ncnc1OC1CCN(C(=O)OC(C)C)CC1 : 60%
COc1cc(Nc2ncc3c(n2)-c2ccc(Cl)cc2C(c2c(F)cccc2OC)=NC3)ccc1C(=O)O : 44%
COc1ccc2c(c1OCc1ccccc1)C[C@@H](C(=O)O)N(C(=O)C(c1ccccc1)c1ccccc1)C2 : 68%
S=C(NCCCc1c[nH]cn1)NCCCN(Cc1ccc(Cl)c(Cl)c1)c1ccc(Br)cn1 : 61%
CC(F)(F)CN1CCOc2c(nn(-c3ccccc3Cl)c2-c2ccc(Cl)cc2)C1=O : 65%

Look at this compound and give its reported Population Healthy Nuclei (%). Cc1c(Cc2ccc3ccccc3n2)c2cc(F)ccc2n1CC(=O)O
77%

Look at this compound and give its reported Population Healthy Nuclei (%). CN1CCN2c3ccccc3Cc3ccccc3C2C1.Cl (stereo not drawn) [MIANSERIN HYDROCHLORIDE]
73%

Look at this compound and give its reported Population Healthy Nuclei (%). COc1cc(C(=O)N2CC[C@@H](O)[C@@H](N)C2)cc2nc(-c3cc4ccccc4n3CC3CC3)n(C)c12.Cl
68%

---

- System: U2OS
- test-summary: Multiplex assay against U2OS
- Type: toxicity, cell-based
- measurement-setup: human, 24 h, 10 µM, compound concentration 10 uM, replicate 2
Strictly below 10% in Population Pyknosed Nuclei (%): criterion met. Otherwise: criterion not met.

Please review the entries below; each comes with its answer.
N[C@](CC1c2ccccc2Oc2ccccc21)(C(=O)O)[C@H]1C[C@@H]1C(=O)O : criterion met
CC(C)(O)C(=O)N1CCN(c2ccc(C(F)(F)F)c(C3=C(c4c[nH]c5ccccc45)C(=O)NC3=O)c2)CC1 : criterion not met
CCc1nn2c(C)cc(C)nc2c1Cc1ccc(-c2nnc(C3CCNCC3)o2)cc1 : criterion not met

For CSc1nc(NC2CCCC2)c([N+](=O)[O-])c(NC2CCCC2)n1 [GS-39783] , is the recorded Population Pyknosed Nuclei (%) below the cut-off of 10%?
criterion met

For C[C@@H]1CC(=O)Nc2cccc(-c3ccc4c(c3)c(-c3cnn(C)c3)nn4C)c2N1 , is the recorded Population Pyknosed Nuclei (%) below the cut-off of 10%?
criterion met

For CN1CCN2c3ccccc3Cc3ccccc3C2C1.Cl (centres undefined) [MIANSERIN HYDROCHLORIDE] , is the recorded Population Pyknosed Nuclei (%) below the cut-off of 10%?
criterion met

For S=C(NCCCc1c[nH]cn1)NCCCN(Cc1ccc(Cl)c(Cl)c1)c1ccc(Br)cn1 , is the recorded Population Pyknosed Nuclei (%) below the cut-off of 10%?
criterion not met

For COCCCN1CCC(NC(=O)c2cc(Cl)c(N)c3c2OCC3)CC1 [PRUCALOPRIDE] , is the recorded Population Pyknosed Nuclei (%) below the cut-off of 10%?
criterion not met

The reported numbers originate from ChEMBL document CHEMBL5058577.
